compounds and their reported IC50
biological target: UniProtKB Q9NR97; assay: TLR8 inhibition reporter assay (HEK-Blue cells, SEAP reporter, R848 stimulation); conditions: TLR8 IC50, HEK-Blue cells overexpressing human TLR8, R848 15.9 μM;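 note: compounds tested from 0.05 nM to 50 µM, 22 h at 37 °C, SEAP measured with HEK-Blue Detection, inhibition relative to agonist plus DMSO versus a known inhibitor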
Sequence (Q9NR97 27-1041): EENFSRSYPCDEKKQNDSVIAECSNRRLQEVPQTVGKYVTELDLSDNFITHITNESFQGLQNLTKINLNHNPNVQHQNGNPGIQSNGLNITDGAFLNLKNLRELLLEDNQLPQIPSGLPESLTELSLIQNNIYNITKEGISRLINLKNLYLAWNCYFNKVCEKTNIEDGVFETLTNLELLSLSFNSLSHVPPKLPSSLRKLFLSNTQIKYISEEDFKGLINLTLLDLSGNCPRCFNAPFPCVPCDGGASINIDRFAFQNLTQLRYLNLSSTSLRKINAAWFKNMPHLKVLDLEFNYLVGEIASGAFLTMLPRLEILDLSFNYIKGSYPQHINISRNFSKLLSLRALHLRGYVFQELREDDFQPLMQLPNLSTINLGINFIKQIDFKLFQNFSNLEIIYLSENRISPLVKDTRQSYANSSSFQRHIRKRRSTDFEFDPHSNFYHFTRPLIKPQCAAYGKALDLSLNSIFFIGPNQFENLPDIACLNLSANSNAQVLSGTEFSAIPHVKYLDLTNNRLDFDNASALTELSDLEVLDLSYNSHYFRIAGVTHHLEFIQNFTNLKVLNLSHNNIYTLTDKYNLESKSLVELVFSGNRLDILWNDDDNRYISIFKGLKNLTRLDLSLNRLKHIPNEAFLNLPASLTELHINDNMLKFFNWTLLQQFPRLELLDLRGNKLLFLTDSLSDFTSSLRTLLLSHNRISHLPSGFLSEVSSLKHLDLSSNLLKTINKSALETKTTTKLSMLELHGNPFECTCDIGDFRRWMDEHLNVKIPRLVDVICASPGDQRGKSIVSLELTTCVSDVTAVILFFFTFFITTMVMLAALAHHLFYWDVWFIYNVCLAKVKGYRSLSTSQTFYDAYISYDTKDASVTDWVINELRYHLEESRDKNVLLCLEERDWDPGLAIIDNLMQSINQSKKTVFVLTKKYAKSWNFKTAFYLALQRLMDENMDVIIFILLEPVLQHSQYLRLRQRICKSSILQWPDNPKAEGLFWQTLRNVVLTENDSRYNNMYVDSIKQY

compound | measure_unit | IC50
Cc1cc(-c2[nH]c3ccc(C4CCN(C(=O)CO)CC4)cc3c2C(C)C)cc(C)n1 | nM | 127
Cc1cc(-c2[nH]c3ccc(C4CCN(C(=O)C5CC(=O)N(C)C5)CC4)cc3c2C(C)C)cc(C)n1 (single isomer, unassigned) [Example 101] | nM | 52.4
Cc1cc(-c2[nH]c3ccc(C4CCN(C(=O)C5CCNC5)CC4)cc3c2C(C)C)cc(C)n1 (single isomer, unassigned) [Example 182] | nM | 12
Cc1cc(-c2[nH]c3ccc(C4CCN(CC(=O)N(C)C(C)C)CC4)cc3c2C(C)C)cc(C)n1 | nM | 20.3
Cc1cc(-c2[nH]c3ccc(C4CCN(C(=O)CNC5(C)CCOCC5)CC4)cc3c2C(C)C)cc(C)n1 | nM | 21.4
Cc1cc(-c2[nH]c3ccc(C4CCN(Cc5cncnc5)CC4)cc3c2C(C)C)cc(C)n1 | nM | 10.5
Cc1cc(-c2[nH]c3ccc(C4CCNCC4O)cc3c2C(C)C)cc(C)n1 (single isomer, unassigned) [Example 488A] | nM | 21
Cc1cc(-c2[nH]c3ccc(C4CCNCC4(F)F)cc3c2C(C)C)cc(C)n1 (single isomer, unassigned) [Example 489B] | nM | 20
Cc1cc(-c2[nH]c3ccc(C4CCN(CC(=O)N5CCC(F)(F)C5)CC4)cc3c2C(C)C)cc(C)n1 | nM | 7
Cc1cc(-c2[nH]c3ccc(C4CCN(C(=O)CNCCC(C)C)CC4)cc3c2C(C)C)cc(C)n1 | nM | 37.8
Cc1cc(-c2[nH]c3ccc(C4CCN(CC(=O)N(C)C5CCOCC5)CC4)cc3c2C(C)C)cc(C)n1 | nM | 22
Cc1cc(-c2[nH]c3ccc(C4CCN(C(=O)Cc5cc(N)n[nH]5)CC4)cc3c2C(C)C)cc(C)n1 | nM | 47.7
Cc1cc(-c2[nH]c3ccc(C4CCN(C(=O)CNCC(C)O)CC4)cc3c2C(C)C)cc(C)n1 (centres unmarked) | nM | 54.1
CCc1c(-c2ccnc(C)c2)[nH]c2ccc(C3CCN(C(=O)[C@@H]4CCCCN4)CC3)cc12 | nM | 18.3

---

target: human TLR7 (Homo sapiens (Human)); test: TLR7 inhibition reporter assay (HEK-Blue cells, SEAP reporter, gardiquimod stimulation); format: cell-based; conditions: HEK-Blue cells overexpressing human TLR7, gardiquimod 7.5 μM
pIC50: −log10 of the molar value.
Lab note: anything with pIC50 at or over 8 counts as y; the rest go in n.

smi | label_value
COc1cc(-c2[nH]c3ccc(C4CCN(C5CCN(C)CC5)CC4)cc3c2C(C)C)ccn1 | n
CCc1c(-c2ccnc(C)c2)[nH]c2ccc(C3CCN(C(C)C)CC3)cc12 | n
CCN(C)C(=O)CN1CCC(c2ccc3[nH]c(-c4cc(C)nc(C)c4)c(C(C)C)c3c2)CC1 | y
Cc1cc(-c2[nH]c3ccc(C4CCN(C(=O)CN5C[C@@H](F)C[C@H]5CO)CC4)cc3c2C(C)C)cc(C)n1 | y
Cc1c(-c2[nH]c3ccc(C4CCNCC4)cc3c2C(C)C)ccnc1N | n

---

molecular target: human TLR7 (Homo sapiens (Human), UniProt Q9NYK1); assay: TLR7 inhibition reporter assay (HEK-Blue cells, SEAP reporter, gardiquimod stimulation); format: cell-based; details: HEK-Blue cells overexpressing human TLR7, gardiquimod 7.5 μM
Sequence (Q9NYK1 27-1049): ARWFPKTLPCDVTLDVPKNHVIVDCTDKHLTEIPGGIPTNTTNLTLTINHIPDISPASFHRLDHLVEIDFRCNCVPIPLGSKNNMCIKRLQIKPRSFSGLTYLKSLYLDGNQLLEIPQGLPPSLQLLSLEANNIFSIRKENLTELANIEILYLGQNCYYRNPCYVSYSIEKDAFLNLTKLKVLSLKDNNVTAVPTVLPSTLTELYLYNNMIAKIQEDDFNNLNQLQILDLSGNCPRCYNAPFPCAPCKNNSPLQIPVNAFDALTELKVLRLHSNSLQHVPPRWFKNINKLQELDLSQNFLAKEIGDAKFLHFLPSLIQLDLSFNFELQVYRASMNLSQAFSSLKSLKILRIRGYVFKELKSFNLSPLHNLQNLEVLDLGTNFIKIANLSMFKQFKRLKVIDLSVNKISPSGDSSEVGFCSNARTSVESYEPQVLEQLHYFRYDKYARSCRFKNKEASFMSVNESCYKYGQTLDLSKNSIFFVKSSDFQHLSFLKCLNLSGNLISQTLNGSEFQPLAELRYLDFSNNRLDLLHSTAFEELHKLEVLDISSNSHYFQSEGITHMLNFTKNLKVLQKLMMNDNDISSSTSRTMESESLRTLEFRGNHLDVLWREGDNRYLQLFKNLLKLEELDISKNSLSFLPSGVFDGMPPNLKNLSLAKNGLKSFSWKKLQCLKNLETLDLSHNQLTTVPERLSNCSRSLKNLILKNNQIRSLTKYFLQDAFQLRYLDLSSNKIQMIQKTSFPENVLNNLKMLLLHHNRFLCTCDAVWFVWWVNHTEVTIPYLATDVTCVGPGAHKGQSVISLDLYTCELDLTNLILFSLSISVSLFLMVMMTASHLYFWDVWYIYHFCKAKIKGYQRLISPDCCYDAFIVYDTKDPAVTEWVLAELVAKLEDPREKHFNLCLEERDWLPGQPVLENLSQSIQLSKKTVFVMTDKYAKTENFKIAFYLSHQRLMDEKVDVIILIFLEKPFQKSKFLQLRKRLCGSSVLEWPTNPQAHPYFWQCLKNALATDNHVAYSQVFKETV
Quick rule for you: IC50 under 7 nM gets fulfilled, anything else gets not fulfilled.

molecule | label_value
Cc1cc(-c2[nH]c3ccc(C4CCN(CCO)CC4)cc3c2C(C)C)cc(C)n1 [Example 329] | fulfilled
Cc1cc(-c2[nH]c3ccc(C4CCN(CC5CC5)CC4)cc3c2C2CC2)cc(C)n1 [Example 667] | not fulfilled
CNCC(=O)N1CCC(c2ccc3[nH]c(-c4cc(C)ncc4F)c(C(C)C)c3c2)CC1 [Example 621] | fulfilled
Cc1cc(-c2[nH]c3ccc(C4CCN(CC(=O)NC(C)(C)C)CC4)cc3c2C(C)C)cc(C)n1 [Example 217] | fulfilled
CCc1c(-c2ccnc(C)c2)[nH]c2ccc(C3CCN(C(=O)c4ccnc(F)c4)CC3)cc12 [Example 592] | not fulfilled
Cc1cc(-c2[nH]c3ccc(C4CCN(C(=O)C5CC5)CC4)cc3c2C(C)C)ccn1 [Example 606] | not fulfilled
Cc1cc(-c2[nH]c3ccc(C4CCN(C(=O)CN5CCOC[C@@H]5CO)CC4)cc3c2C(C)C)cc(C)n1 [Example 405] | fulfilled
CC(C)c1c(-c2ccnc(Cl)c2C#N)[nH]c2ccc(C3CCNCC3)cc12 [Example 36] | not fulfilled
Cc1cc(-c2[nH]c3ccc(C4CCN(CC(=O)N5CCC6(CC5)COC6)CC4)cc3c2C(C)C)cc(C)n1 [Example 286] | fulfilled
Cc1cc(-c2[nH]c3ccc(C4CCN(CC(C)C)CC4)cc3c2C(C)C)c(C)cn1 [Example 666] | fulfilled
Cc1cc(-c2[nH]c3ccc(C4CCN(CC(=O)NCC#N)CC4)cc3c2C(C)C)cc(C)n1 [Example 239] | fulfilled
COc1cc(-c2[nH]c3ccc(C4CCN(C5CCN(C6CCCC6)CC5)CC4)cc3c2C(C)C)ccn1 [Example 802] | not fulfilled
CNCCC(=O)N1CCC(c2ccc3[nH]c(-c4cc(C)nc(C)c4)c(C(C)C)c3c2)CC1 [Example 183] | fulfilled
Cc1cc(-c2[nH]c3ccc(C4CCN(C(=O)CN(C)CCC5(O)CCCC5)CC4)cc3c2C(C)C)cc(C)n1 [Example 408] | not fulfilled
Cc1cc(-c2[nH]c3ccc(C4CCN(C(=O)C5CC(=O)N(C)C5)CC4)cc3c2C(C)C)c(F)cn1 (stereo not drawn) [Example 583] | not fulfilled
Cc1cc(-c2[nH]c3ccc(C4CCN(C(=O)C5CC(=O)N(C)C5)CC4)cc3c2C(C)C)cc(C)n1 (stereo not drawn) [Example 100] | not fulfilled
Cc1cc(-c2[nH]c3ccc(C4CCN(CC(=O)NCC(C)(C)O)CC4)cc3c2C(C)C)cc(C)n1 [Example 268] | fulfilled
Cc1cc(-c2[nH]c3ccc(C4CCN(C(=O)C5CNC(=O)C5)CC4)cc3c2C(C)C)ccn1 (stereo not drawn) [Example 612] | not fulfilled
Cc1cc(-c2[nH]c3ccc(C4CCN(C(=O)CN(C)C)CC4)cc3c2C(C)C)cc(C2CC2)n1 [Example 506] | not fulfilled
Cc1cc(-c2[nH]c3ccc(C4CCN(C(=O)CN5CCCC5)CC4)cc3c2C(C)C)cc(C)n1 [Example 352] | fulfilled
Cc1cc(-c2[nH]c3ccc(C4CCN(CC(=O)N5CCNC(=O)C5)CC4)cc3c2C(C)C)cc(C)n1 [Example 272] | fulfilled
Cc1cc(-c2[nH]c3ccc(C4CCN(CC(=O)N(CCO)Cc5ccccc5)CC4)cc3c2C(C)C)cc(C)n1 [Example 293] | not fulfilled
Cc1ccc(CN2CCC(c3ccc4[nH]c(-c5cc(C)nc(C)c5)c(C(C)C)c4c3)CC2)cn1 [Example 437] | not fulfilled
Cc1cc(-c2[nH]c3ccc(C4CCN(C(=O)C5(O)CC5)CC4)cc3c2C(C)C)cc(C)n1 [Example 107] | not fulfilled
COCCN(C)CC(=O)N1CCC(c2ccc3[nH]c(-c4cc(C)nc(C)c4)c(C(C)C)c3c2)CC1 [Example 148] | fulfilled
Cc1cc(-c2[nH]c3ccc(C4CCN(C(=O)CNC5(C)CCC5)CC4)cc3c2C(C)C)cc(C)n1 [Example 353] | fulfilled
CCc1c(-c2ccnc(OC)c2)[nH]c2ccc(C3CCN(C4CCN(C5CC5)CC4)CC3)cc12 [Example 788] | not fulfilled
Cc1cc(-c2[nH]c3ccc(C4CCN(Cc5c[nH]cn5)CC4)cc3c2CC(F)F)cc(C)n1 [Example 537] | not fulfilled

---

biological target: human TLR7 (Homo sapiens (Human)); experiment: TLR7 inhibition reporter assay (HEK-Blue cells, SEAP reporter, gardiquimod stimulation); assay type: cell-based; settings: HEK-Blue cells overexpressing human TLR7, gardiquimod 7.5 μM
pIC50: −log10 of the molar value.
Classification field: 1 (yes) = pIC50 at or over 8; 0 (no) = pIC50 under 8.

molecule | label_value
Cc1cc(-c2[nH]c3ccc(C4CCN(C(=O)CN5CCCS5(=O)=O)CC4)cc3c2C(C)C)cc(C)n1 [Example 152] | 1 (yes)
CNC(=O)CN1CCC(c2ccc3[nH]c(-c4cc(C5CC5)ncc4F)c(C(C)C)c3c2)CC1 [Example 514] | 0 (no)
Cc1cc(-c2[nH]c3ccc(C4CCN(C(=O)C5CCN(C)C(=O)C5)CC4)cc3c2C(C)C)ccn1 (stereo not shown) [Example 607] | 0 (no)
Cc1cc(-c2[nH]c3ccc(C4CCN(C(=O)C5CCN(C)CC5)CC4)cc3c2C(C)C)cc(C)n1 [Example 110] | 1 (yes)
Cc1cc(-c2[nH]c3ccc(C4CCN(C(=O)[C@@H](N)Cc5c[nH]cn5)CC4)cc3c2C(C)C)ccn1 [Example 574] | 0 (no)
Cc1cc(-c2[nH]c3ccc(C4CCN(Cc5ncon5)CC4)cc3c2C(C)C)c(F)cn1 [Example 735] | 0 (no)
CCc1c(-c2ccnc(-c3noc(N)n3)c2)[nH]c2ccc(C3CCNCC3)cc12 [Example 65] | 0 (no)
CCc1c(-c2ccnc(C)c2)[nH]c2ccc(C3CCN(C(=O)C4(C)CCNCC4)CC3)cc12 [Example 626] | 0 (no)
CCc1c(-c2ccnc(N)c2O)[nH]c2ccc(C3CCNCC3)cc12 [Example 71] | 0 (no)
Cc1cc(-c2[nH]c3ccc(C4CCN(CC(=O)N5CCC[C@@H](O)C5)CC4)cc3c2C(C)C)cc(C)n1 [Example 209] | 1 (yes)
CC(C)c1c(-c2c(Cl)cncc2Cl)[nH]c2ccc(C3CCNCC3)cc12 [Example 20] | 0 (no)
